Source: PubChem BioAssay

test.description: growth modulation of vineyard yeast isolate – strain RM11-1a, OD600, basal, 24 h, primary screen (AID 1177);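 note: cultures grown under basal conditions with no added stressor; test concentration not given here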
test.context: S. cerevisiae RM11-1a growth, OD600, 24 h; higher = more signal, called active from +8 up or from −8 down
Readings of z-score for the listed compounds
A bare number is all that is needed in reply.

Use the examples below as a reference point.
compound="C=C(C)[C@@H]1CC=C(C(O)C2C=CC3C(=O)N(Cc4ccccc4)C(=O)C3N2n2cnnc2)CC1 (some centres not stated)" test_readout=z-score reported=-0.616
compound=CCOC(=O)C1=C[C@@H](C(C)(C)C)N(S(=O)(=O)c2ccc(C)cc2)[C@H]1c1ccc(Cl)c(Cl)c1 test_readout=z-score reported=1.26
compound=C=C(C(=O)CC[C@@H](OC(=O)c1cccnc1)c1ccc(OCCO)cc1)C(C)C test_readout=z-score reported=-22.2

// query z-score value for entry COc1cc(NN2C(C(O)c3ccccc3)C=CC3C(=O)N(c4ccccc4)C(=O)C32)cc(OC)c1OC (configuration not stated)
0.0729

What does the data say about its z-score? Entry: COC(=O)[C@@]1(Cc2ccc(F)cc2)[C@H]2c3cc(C(=O)N4CCCC4)n(Cc4ccc(Cl)c(C(F)(F)F)c4)c3C[C@H]2CN1C(=O)c1ccccc1
0.78

If you can, please state the reported z-score value of C=CCC(OC(C)=O)[C@@H]1[C@@H](N(Cc2ccc(-c3ccccc3)cc2)C(=O)c2ccc(C)cc2)c2cc(OCCCO)ccc2N1C(=O)c1ccc2ccccc2n1 (some centres not stated) .
-1.99

# z-score lookup, item C=CCN1Cc2ccccc2C[C@]2(N=C(c3ccc(OCCCO)cc3)O[C@@H]2c2ccccc2)C1=O
-0.211
